The origin of these recorded values is paper PMC11032447.

Target: T1, mouse secretagogin (mouse, UniProt Q91WD9 1-276)
T1 construct: mouse secretagogin, the three-domain protein (domains A, B, C); construct in Dataset S1; also called mSCGN; SCGN; source: recombinant, produced and purified; E. coli BL21(DE3) named for the pull-down constructs
T1 sequence (looked up): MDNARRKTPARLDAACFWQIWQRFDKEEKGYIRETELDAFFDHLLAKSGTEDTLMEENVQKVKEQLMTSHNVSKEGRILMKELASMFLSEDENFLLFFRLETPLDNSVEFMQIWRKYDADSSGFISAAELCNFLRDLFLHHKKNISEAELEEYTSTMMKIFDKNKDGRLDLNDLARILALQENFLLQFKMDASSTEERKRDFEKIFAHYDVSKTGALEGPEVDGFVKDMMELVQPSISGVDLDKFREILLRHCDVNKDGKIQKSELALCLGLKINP
Experiment: ITC; in the presence of Ca2+
Details: both partners purified
pKd: −log10 of the molar value.
Measured pKd values are reported for all entries that follow.

Reported pKd, binder GIIGNLRHMALDMGNEIDTQNRQID (mouse SNAP-25, stretch of the C-terminal helix; Tags of the deletion constructs are in Dataset S1; also called mSNAP-25^14−33; SNAP-25^14–33; source: recombinant deletion construct of SNAP-25c) [mouse SNAP-25 peptide 155-179] : ____
~7.33

***
Reported pKd, binder ARLGSPDDEFFQKVQTIRQTMAKLESKVRELEKQQVTILATPLPEESMK (domain or fragment, UniProt P70452 32-80, looked up, limits in Dataset S1; Used as bait in the pull-down; source: recombinant; E. coli BL21(DE3) named for the pull-down constructs) [helix-a of the Habc domain of mouse syntaxin-4] : ____
~5.15

Reported pKd, binder TPLPEESMKQGLQNLREEIKQLGREVRAQLKAIEPQKE (domain or fragment, UniProt P70452 72-109, looked up, limits in Dataset S1; Used as bait in the pull-down; also called Hb; syntaxin-4 Hb; source: recombinant; E. coli BL21(DE3) named for the pull-down constructs) [helix-b of the Habc domain of mouse syntaxin-4] : ____
~6.68

Reported pKd, binder Habc domain of mouse syntaxin-4 (domain or fragment, UniProt P70452 32-170, looked up, mouse syntaxin-4, globular Habc domain; limits in Dataset S1; The His6 tag is told for the pull-down baits; a Habc with the N-peptide is m36; also called Habc module of syntaxin-4; syntaxin-4-derived Habc module; source: recombinant, produced and purified; E. coli BL21(DE3) named for the pull-down constructs) ARLGSPDDEFFQKVQTIRQTMAKLESKVRELEKQQVTILATPLPEESMKQGLQNLREEIKQLGREVRAQLKAIEPQKEEADENYNSVNTRMKKTQHGVLSQQFVELINKCNSMQSEYREKNVERIRRQLKITNAGMVSD : ____
~4.85
